Values were extracted from PubChem BioAssay.

Biological target: Potassium voltage-gated channel subfamily KQT member 2 (Rattus norvegicus) (UniProt O88943)
Sequence (O88943 whole entry, looked up): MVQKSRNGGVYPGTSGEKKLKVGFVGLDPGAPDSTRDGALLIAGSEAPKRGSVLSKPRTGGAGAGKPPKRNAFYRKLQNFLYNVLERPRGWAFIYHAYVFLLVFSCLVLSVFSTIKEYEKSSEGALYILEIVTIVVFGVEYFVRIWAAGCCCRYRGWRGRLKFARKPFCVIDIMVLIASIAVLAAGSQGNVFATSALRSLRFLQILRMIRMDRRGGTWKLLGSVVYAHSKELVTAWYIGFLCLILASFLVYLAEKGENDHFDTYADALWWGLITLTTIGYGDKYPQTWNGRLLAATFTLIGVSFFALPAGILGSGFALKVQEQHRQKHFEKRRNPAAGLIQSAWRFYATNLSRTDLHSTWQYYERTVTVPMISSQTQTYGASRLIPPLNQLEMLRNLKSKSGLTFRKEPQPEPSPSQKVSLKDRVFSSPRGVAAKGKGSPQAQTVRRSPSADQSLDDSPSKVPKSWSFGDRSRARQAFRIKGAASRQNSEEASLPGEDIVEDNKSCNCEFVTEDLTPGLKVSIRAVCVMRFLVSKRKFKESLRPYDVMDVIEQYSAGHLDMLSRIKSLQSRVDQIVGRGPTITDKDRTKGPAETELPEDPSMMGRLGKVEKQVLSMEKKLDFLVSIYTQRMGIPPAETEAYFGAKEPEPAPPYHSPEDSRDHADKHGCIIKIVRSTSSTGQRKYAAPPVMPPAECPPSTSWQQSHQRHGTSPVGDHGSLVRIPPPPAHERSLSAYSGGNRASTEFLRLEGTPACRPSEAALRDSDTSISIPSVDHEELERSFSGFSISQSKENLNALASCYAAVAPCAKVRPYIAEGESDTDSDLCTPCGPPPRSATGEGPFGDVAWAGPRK
Assay: rat KCNQ2 channel potentiation, selectivity assay for KCNQ1 potentiator project, KCNQ2-CHO-K1 cells (AID 493009);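 note: assay conditions were tuned for KCNQ1 rather than KCNQ2 modulators; signal is max minus min fluorescence divided by baseline after thallium stimulus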
Conditions: FluxOR thallium flux fluorescence, at 10 µM, scaled: buffer 0, activator control 100
Active and inactive are the calls of the source.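 Rule for the calls: active = mean duplicate potentiation above the buffer control mean plus 5 SD of buffer wells; inactive = the rest.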
Pick from T for active, F for inactive when you respond.

Query: recorded result category for "CC(=O)c1ccc(OCc2cc(C(=O)N(C)Cc3nc4c(C)cccc4[nH]3)no2)cc1" in this test
F

Query: recorded result category for "NC(=O)COC(=O)c1ccccc1Nc1ccc(SC(F)F)cc1" in this test
T

Query: recorded result category for "COc1ccc(/C=C2\SC(=Nc3ccccc3OC)NC2=O)cc1" in this test
F

Query: recorded result category for "O=C(COC(=O)c1cc(NS(=O)(=O)c2cccs2)ccc1O)Nc1cc(Cl)ccc1Cl" in this test
F

Please look at the following compound next.
Query: recorded result category for "Cc1ccc(-c2c(C(=O)O)c3ccccc3[nH]c2=O)cc1" in this test
F
